# study_system: Histone deacetylase 4 (Homo sapiens)
# Sequence (P56524 whole entry): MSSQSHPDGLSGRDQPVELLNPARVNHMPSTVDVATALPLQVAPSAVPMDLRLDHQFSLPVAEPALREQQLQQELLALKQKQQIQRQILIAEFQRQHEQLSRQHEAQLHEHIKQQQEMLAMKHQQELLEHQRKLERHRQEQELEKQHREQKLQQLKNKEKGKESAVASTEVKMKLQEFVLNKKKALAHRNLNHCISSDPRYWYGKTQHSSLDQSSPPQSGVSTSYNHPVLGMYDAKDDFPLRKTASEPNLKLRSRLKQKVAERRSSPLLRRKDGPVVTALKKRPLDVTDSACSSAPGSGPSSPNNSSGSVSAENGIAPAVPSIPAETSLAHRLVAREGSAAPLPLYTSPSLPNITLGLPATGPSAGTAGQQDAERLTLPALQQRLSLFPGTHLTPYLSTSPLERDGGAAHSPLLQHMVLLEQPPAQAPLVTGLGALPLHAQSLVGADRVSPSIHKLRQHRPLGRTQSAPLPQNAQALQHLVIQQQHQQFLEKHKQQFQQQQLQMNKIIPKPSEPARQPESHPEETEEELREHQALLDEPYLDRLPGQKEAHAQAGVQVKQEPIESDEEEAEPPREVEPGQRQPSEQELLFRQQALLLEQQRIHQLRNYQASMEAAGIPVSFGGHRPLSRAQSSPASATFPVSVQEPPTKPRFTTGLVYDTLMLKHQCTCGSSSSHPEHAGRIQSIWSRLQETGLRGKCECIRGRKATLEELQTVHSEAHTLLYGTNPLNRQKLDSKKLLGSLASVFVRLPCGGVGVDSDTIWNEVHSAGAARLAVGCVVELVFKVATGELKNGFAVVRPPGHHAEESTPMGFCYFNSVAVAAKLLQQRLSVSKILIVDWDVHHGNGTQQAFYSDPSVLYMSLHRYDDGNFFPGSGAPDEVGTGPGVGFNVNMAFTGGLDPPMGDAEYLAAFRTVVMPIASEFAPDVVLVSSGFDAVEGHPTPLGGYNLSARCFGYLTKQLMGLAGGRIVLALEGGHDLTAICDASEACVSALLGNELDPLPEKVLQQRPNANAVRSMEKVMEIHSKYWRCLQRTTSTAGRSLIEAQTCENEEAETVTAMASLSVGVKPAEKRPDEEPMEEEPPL
# method_description: Inhibition of human HDAC4 expressed in HEK293T cells assessed as aminomethyl coumarin release using Ac-KGLGK(Ac)-MCA) substrate after 30 mins by FLIPR method
# setup_conditions: hek-293t
Square brackets hold non-standard residues; d marks the D form. Peptide text beside a SMILES is read from it. * marks the point of attachment. Asu = N[C@@H](CCCCCC(=O)O)C(=O)O; NHOH = ON*
measurement_kind: IC50
The number alone won't do; follow it with the unit.

Some solved cases for reference:
O=C(CCCCC[C@@H]1NC(=O)[C@H]2CCCN2C(=O)[C@@H]2CCCCCCCCCC[C@H](NC1=O)C(=O)N2)NO; 26 nM
CCCCC[C@@H]1NC(=O)[C@H](CCCCCC(=O)NO)NC(=O)[C@H]2CCCN2C(=O)[C@H](CCCCC)NC1=O; 15 nM
O=C(CCCCC[C@@H]1NC(=O)[C@H]2CCCN2C(=O)[C@@H]2CCOCCCCOCC[C@@H](NC1=O)C(=O)N2)NO; 41 nM
CCCCC[C@@H]1NC(=O)[C@H]2CCCN2C(=O)[C@H](CCCCCC(=O)NO)NC(=O)[C@@H](CCCCC)NC1=O; 43 nM

I'm hoping you can list IC50 for every compound here, please.
1. CC[C@H](C)[C@@H]1NC(=O)[C@@H](Cc2ccc(OC)cc2)NC(=O)[C@H](CCCCCC(=O)NO)NC(=O)[C@H]2CCCN2C1=O (cyclo([Asu](NHOH)[dY](Me)I[dP]))
2. O=C(CCCCC[C@@H]1NC(=O)[C@H]2CCCCCCCCCC[C@H](NC(=O)[C@H]3CCCN3C1=O)C(=O)N2)NO

["3 nM", "31 nM"]

###

Please respond with reported Ratio IC50 for every item in the list.
# method_description: Selectivity index, ratio of IC50 for mouse HDAC6 to IC50 for human HDAC1
Square brackets hold non-standard residues; d marks the D form. Peptide text beside a SMILES is read from it. * marks the point of attachment. Asu = N[C@@H](CCCCCC(=O)O)C(=O)O; NHOH = ON*
One number for each entry.

Some solved cases for reference:
CCCCC[C@@H]1NC(=O)[C@H]2CCCN2C(=O)[C@H](CCCCCC(=O)NO)NC(=O)[C@@H](CCCCC)NC1=O; 13.3
O=C(CCCCC[C@@H]1NC(=O)[C@H]2CCCN2C(=O)[C@@H]2CCOCCCCOCC[C@@H](NC1=O)C(=O)N2)NO; 7.7
O=C(CCCCC[C@@H]1NC(=O)[C@H]2CCCN2C(=O)[C@@H]2CCCCCCCCCC[C@@H](NC1=O)C(=O)N2)NO; 45.1
O=C(CCCCC[C@@H]1NC(=O)[C@H]2CCCCCCCCCC[C@H](NC(=O)[C@H]3CCCN3C1=O)C(=O)N2)NO; 19.6
CC[C@H](C)[C@@H]1NC(=O)[C@@H](Cc2ccc(OC)cc2)NC(=O)[C@H](CCCCCC(=O)NO)NC(=O)[C@H]2CCCN2C1=O (cyclo([Asu](NHOH)[dY](Me)I[dP])); 32.5
O=C(CCCCC[C@@H]1NC(=O)[C@H]2CCCN2C(=O)[C@@H]2CCCCCCCCCC[C@H](NC1=O)C(=O)N2)NO; 9.2
CCCCC[C@@H]1NC(=O)[C@H](CCCCCC(=O)NO)NC(=O)[C@H]2CCCN2C(=O)[C@H](CCCCC)NC1=O; 3.7

Turning to the following molecule.
The molecule listed as `CCCCC[C@@H]1NC(=O)[C@@H](CCCCC)NC(=O)[C@H](CCCCCC(=O)NO)NC(=O)[C@H]2CCCN2C1=O` shows Ratio IC50 equal to 13.6

###

# method_description: Retention time by HPLC method
# Assay type: physicochemical
measurement_kind: Retention_time (min)
Numbers only, in min.

Some solved cases for reference:
O=C(CCCCC[C@@H]1NC(=O)[C@H]2CCCCCCCCCC[C@H](NC(=O)[C@H]3CCCN3C1=O)C(=O)N2)NO; 7.06
CCCCC[C@@H]1NC(=O)[C@H]2CCCN2C(=O)[C@H](CCCCCC(=O)NO)NC(=O)[C@@H](CCCCC)NC1=O; 7.67

I'm hoping you can list Retention_time for every molecule here, please.
1. O=C(CCCCC[C@@H]1NC(=O)[C@H]2CCCN2C(=O)[C@@H]2CCCCCCCCCC[C@@H](NC1=O)C(=O)N2)NO
2. CCCCC[C@@H]1NC(=O)[C@@H](CCCCC)NC(=O)[C@H](CCCCCC(=O)NO)NC(=O)[C@H]2CCCN2C1=O
3. CCCCC[C@@H]1NC(=O)[C@H](CCCCCC(=O)NO)NC(=O)[C@H]2CCCN2C(=O)[C@H](CCCCC)NC1=O
4. O=C(CCCCC[C@@H]1NC(=O)[C@H]2CCCN2C(=O)[C@@H]2CCCCCCCCCC[C@H](NC1=O)C(=O)N2)NO

1. 6.03
2. 7.51
3. 6.55
4. 5.8

The molecule listed as `O=C(CCCCC[C@@H]1NC(=O)[C@H]2CCCN2C(=O)[C@@H]2CCOCCCCOCC[C@@H](NC1=O)C(=O)N2)NO` shows Retention_time equal to 4.31

###

# study_system: Histone deacetylase 1 (Homo sapiens, UniProt Q13547)
# Sequence (Q13547 whole entry): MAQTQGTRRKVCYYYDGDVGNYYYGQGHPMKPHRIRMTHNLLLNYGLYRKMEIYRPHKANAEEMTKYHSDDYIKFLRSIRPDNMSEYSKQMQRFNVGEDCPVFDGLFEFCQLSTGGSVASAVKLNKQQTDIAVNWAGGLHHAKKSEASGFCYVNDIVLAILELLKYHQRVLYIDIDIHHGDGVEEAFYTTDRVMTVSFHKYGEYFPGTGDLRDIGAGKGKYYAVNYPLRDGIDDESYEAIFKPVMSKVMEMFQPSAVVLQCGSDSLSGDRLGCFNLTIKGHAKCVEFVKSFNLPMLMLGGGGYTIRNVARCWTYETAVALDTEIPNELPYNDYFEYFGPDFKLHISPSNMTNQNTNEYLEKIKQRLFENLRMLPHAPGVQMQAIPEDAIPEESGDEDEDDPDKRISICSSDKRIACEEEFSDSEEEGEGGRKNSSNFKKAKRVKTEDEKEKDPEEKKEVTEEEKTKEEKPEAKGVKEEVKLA
# method_description: Inhibition of human HDAC1 expressed in HEK293T cells assessed as aminomethyl coumarin release using Ac-KGLGK(Ac)-MCA) substrate after 30 mins by FLIPR method
pIC50: −log10 of the molar value. Square brackets hold non-standard residues; d marks the D form. Peptide text beside a SMILES is read from it. * marks the point of attachment. Asu = N[C@@H](CCCCCC(=O)O)C(=O)O; NHOH = ON*
Mark not fulfilled for pIC50 values under 8, and fulfilled for everything at or above.

O=C(CCCCC[C@@H]1NC(=O)[C@H]2CCCCCCCCCC[C@H](NC(=O)[C@H]3CCCN3C1=O)C(=O)N2)NO; not fulfilled
CC[C@H](C)[C@@H]1NC(=O)[C@@H](Cc2ccc(OC)cc2)NC(=O)[C@H](CCCCCC(=O)NO)NC(=O)[C@H]2CCCN2C1=O (cyclo([Asu](NHOH)[dY](Me)I[dP])); fulfilled
O=C(CCCCC[C@@H]1NC(=O)[C@H]2CCCN2C(=O)[C@@H]2CCOCCCCOCC[C@@H](NC1=O)C(=O)N2)NO; not fulfilled
CCCCC[C@@H]1NC(=O)[C@H]2CCCN2C(=O)[C@H](CCCCCC(=O)NO)NC(=O)[C@@H](CCCCC)NC1=O; not fulfilled
O=C(CCCCC[C@@H]1NC(=O)[C@H]2CCCN2C(=O)[C@@H]2CCCCCCCCCC[C@H](NC1=O)C(=O)N2)NO; not fulfilled

Shifting focus to the compound that follows.
Please tell me: is the compound `CCCCC[C@@H]1NC(=O)[C@H](CCCCCC(=O)NO)NC(=O)[C@H]2CCCN2C(=O)[C@H](CCCCC)NC1=O` at or over 8 in terms of pIC50?
not fulfilled

###

# study_system: Protein deacetylase HDAC6 (Mus musculus, UniProt Q9Z2V5)
# Sequence (Q9Z2V5 whole entry): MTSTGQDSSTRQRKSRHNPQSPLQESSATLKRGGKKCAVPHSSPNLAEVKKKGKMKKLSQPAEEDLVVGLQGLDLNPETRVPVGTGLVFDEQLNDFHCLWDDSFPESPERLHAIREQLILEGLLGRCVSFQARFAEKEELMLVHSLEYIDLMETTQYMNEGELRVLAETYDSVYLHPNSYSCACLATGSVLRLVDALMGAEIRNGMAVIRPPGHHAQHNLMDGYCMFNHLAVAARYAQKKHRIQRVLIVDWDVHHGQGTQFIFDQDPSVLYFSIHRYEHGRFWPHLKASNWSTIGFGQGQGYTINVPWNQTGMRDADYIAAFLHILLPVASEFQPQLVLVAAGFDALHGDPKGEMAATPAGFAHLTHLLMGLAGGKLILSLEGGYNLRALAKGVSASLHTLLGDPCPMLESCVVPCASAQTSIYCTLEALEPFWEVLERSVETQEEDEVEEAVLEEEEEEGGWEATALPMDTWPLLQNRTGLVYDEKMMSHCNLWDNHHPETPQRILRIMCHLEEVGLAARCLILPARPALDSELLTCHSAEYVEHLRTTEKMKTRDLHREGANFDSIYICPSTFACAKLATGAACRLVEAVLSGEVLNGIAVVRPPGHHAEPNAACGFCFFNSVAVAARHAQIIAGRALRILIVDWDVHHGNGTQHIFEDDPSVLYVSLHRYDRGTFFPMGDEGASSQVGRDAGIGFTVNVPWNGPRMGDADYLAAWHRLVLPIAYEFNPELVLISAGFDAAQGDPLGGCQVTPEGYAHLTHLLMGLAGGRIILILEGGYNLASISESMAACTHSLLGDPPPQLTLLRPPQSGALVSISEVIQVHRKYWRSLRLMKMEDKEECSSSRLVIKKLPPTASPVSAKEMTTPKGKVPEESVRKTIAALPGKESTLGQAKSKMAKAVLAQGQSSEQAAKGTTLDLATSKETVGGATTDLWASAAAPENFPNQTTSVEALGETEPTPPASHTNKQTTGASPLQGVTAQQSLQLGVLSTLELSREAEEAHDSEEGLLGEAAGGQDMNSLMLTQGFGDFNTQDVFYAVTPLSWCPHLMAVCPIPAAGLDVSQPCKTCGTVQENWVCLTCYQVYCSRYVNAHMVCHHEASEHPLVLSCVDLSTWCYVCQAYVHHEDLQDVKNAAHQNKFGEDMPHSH
# method_description: Inhibition of mouse HDAC6 expressed in HEK293T cells assessed as aminomethyl coumarin release using Ac-KGLGK(Ac)-MCA) substrate after 30 mins by FLIPR method
Square brackets hold non-standard residues; d marks the D form. Peptide text beside a SMILES is read from it. * marks the point of attachment. Asu = N[C@@H](CCCCCC(=O)O)C(=O)O; NHOH = ON*
measurement_kind: log10 of IC50 (log10 of the value in nM)
Values reflect log10 of reported IC50 (nM).

Some solved cases for reference:
O=C(CCCCC[C@@H]1NC(=O)[C@H]2CCCN2C(=O)[C@@H]2CCOCCCCOCC[C@@H](NC1=O)C(=O)N2)NO; 2.38
CCCCC[C@@H]1NC(=O)[C@H]2CCCN2C(=O)[C@H](CCCCCC(=O)NO)NC(=O)[C@@H](CCCCC)NC1=O; 2.76
CCCCC[C@@H]1NC(=O)[C@H](CCCCCC(=O)NO)NC(=O)[C@H]2CCCN2C(=O)[C@H](CCCCC)NC1=O; 2.15

I'm hoping you can list log10 of IC50 for every molecule here, please.
1. CC[C@H](C)[C@@H]1NC(=O)[C@@H](Cc2ccc(OC)cc2)NC(=O)[C@H](CCCCCC(=O)NO)NC(=O)[C@H]2CCCN2C1=O (cyclo([Asu](NHOH)[dY](Me)I[dP]))
2. O=C(CCCCC[C@@H]1NC(=O)[C@H]2CCCN2C(=O)[C@@H]2CCCCCCCCCC[C@@H](NC1=O)C(=O)N2)NO
3. O=C(CCCCC[C@@H]1NC(=O)[C@H]2CCCN2C(=O)[C@@H]2CCCCCCCCCC[C@H](NC1=O)C(=O)N2)NO
4. CCCCC[C@@H]1NC(=O)[C@@H](CCCCC)NC(=O)[C@H](CCCCCC(=O)NO)NC(=O)[C@H]2CCCN2C1=O
5. O=C(CCCCC[C@@H]1NC(=O)[C@H]2CCCCCCCCCC[C@H](NC(=O)[C@H]3CCCN3C1=O)C(=O)N2)NO

1. 1.11
2. 2.61
3. 2.36
4. 2.53
5. 2.69
